From: patent US11453690B2

Observed IC50 for AT1 Receptor (AT1R) (Homo sapiens (Human)), reported per entry below.

CN(Cc1ccccc1)C(=O)N1[C@H]2CC[C@@H]1[C@@H](C(=O)O)N(C(=O)C(c1ccccc1)c1ccccc1)C2
> 10 µM
O=C(O)[C@@H]1[C@H]2CC[C@@H](CN1C(=O)C(c1ccccc1)c1ccccc1)N2C(=O)OCc1ccccc1
> 10 µM

Kindly consider the entry below.
[in] Which IC50 is reported with AT1 Receptor (AT1R) (Homo sapiens (Human)) for this entry: COc1ccc(CN(C)C(=O)N2[C@H]3CC[C@@H]2[C@@H](C(=O)O)N(C(=O)N(c2ccccc2)c2ccccc2)C3)cc1 ?
[out] > 10 µM
